Recorded values, source patent US12492188B2.

Target: human TLR9 (Homo sapiens)
Construct: host or cells: HEK-Blue cells (HEK293-derived reporter line)
Sequence (Q9NR96 26-1032): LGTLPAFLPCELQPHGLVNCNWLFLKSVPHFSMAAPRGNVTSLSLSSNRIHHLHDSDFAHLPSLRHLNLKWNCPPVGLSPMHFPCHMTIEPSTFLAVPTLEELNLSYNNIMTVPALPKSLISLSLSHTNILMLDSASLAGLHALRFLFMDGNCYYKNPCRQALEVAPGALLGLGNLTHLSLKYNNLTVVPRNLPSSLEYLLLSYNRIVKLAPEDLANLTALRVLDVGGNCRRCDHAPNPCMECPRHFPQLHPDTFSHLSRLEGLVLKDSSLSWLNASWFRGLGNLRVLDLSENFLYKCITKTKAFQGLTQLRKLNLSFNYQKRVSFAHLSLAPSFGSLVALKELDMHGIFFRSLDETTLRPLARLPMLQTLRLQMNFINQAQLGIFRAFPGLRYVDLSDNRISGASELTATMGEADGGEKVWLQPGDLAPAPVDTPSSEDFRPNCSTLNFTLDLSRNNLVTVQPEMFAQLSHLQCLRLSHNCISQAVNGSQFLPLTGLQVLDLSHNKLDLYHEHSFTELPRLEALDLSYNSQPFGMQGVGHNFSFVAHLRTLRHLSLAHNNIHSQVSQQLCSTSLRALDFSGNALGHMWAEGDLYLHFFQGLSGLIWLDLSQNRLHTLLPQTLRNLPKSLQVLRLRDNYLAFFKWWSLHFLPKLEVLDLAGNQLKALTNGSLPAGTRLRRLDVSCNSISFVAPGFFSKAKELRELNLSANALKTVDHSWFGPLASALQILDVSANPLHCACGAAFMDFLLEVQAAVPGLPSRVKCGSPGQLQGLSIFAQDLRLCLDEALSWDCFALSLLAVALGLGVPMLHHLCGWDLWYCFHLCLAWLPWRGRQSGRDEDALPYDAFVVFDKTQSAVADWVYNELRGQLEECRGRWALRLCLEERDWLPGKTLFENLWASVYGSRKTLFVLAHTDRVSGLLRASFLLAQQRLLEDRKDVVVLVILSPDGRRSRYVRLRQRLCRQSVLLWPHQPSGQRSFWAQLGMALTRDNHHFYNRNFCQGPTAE
Assay: TLR9 inhibition reporter assay (HEK-Blue cells, secreted embryonic alkaline phosphatase reporter)
Type: cell-based
Conditions: HEK-Blue cells overexpressing human TLR9, stimulated with ODN2006 5 nM; read-out: TLR 9 IC50
pIC50: −log10 of the molar value.
Returns one of 1 or 0; 1 when pIC50 is >= 7.

> print(dat)
                                   compound  category
1  Cc1cc(-c2cc(F)c(CN3CCC(N4CCCC4)CC3)c(F)c2)cc2c1nc(-c1ccc(S(C)(=O)=O)cc1)n2C [Example 391]         0
2  Cc1cc(C2CCN(C3CC4(C3)CN(C3CCC3)C4)CC2)cc2c1nc(-c1ccc(S(C)(=O)=O)cc1)n2C [Example 140]         0
3  CC(C)CN1CC2(CN(Cc3ccc(-c4cc(F)c5nc(-c6ccc(S(C)(=O)=O)cc6)n(C6CC6)c5c4)cc3)C2)C1 [Example 411]         1
4  COc1ccc(-c2nc3cc(C4CCN(C5CCN(C(C)C)CC5)CC4)c(C(F)(F)F)cc3[nH]2)cc1OC [Example 10]         0
5  Cc1cc(C2CCN(C3CCN(CC(C)C)CC3)CC2)cc2[nH]c(-c3cnc4[nH]ccc4c3)nc12 [Example 81]         1
6  CN(C)C1CCN(Cc2ccc(-c3ccc4nc(-c5ccccc5)n(C)c4c3)cc2)CC1 [Example 374]         0
7  Cc1cc(-c2ccc(CN3CCC(N(C)C)CC3)cc2)cc2c1nc(-c1ccc(S(C)(=O)=O)cc1)n2C [Example 385]         0
8  Cn1c(-c2ccc(S(C)(=O)=O)cc2)nc2c(F)cc(C3CCN(C4CCCN(C5CCOCC5)CC4)CC3)cc21 (centres unmarked) [Example 300]         1
9  Cn1c(-c2ccc(S(C)(=O)=O)cc2)nc2cc(C3CCN(C4CC5CCC(C4)N5C4COC4)CC3)c(F)cc21 (single isomer, unassigned) [Example 254]         0

* * *

Measured IC50, listed per entry.
Molecular target: human TLR7 (Homo sapiens, UniProt Q9NYK1)
Sequence (Q9NYK1 27-1049): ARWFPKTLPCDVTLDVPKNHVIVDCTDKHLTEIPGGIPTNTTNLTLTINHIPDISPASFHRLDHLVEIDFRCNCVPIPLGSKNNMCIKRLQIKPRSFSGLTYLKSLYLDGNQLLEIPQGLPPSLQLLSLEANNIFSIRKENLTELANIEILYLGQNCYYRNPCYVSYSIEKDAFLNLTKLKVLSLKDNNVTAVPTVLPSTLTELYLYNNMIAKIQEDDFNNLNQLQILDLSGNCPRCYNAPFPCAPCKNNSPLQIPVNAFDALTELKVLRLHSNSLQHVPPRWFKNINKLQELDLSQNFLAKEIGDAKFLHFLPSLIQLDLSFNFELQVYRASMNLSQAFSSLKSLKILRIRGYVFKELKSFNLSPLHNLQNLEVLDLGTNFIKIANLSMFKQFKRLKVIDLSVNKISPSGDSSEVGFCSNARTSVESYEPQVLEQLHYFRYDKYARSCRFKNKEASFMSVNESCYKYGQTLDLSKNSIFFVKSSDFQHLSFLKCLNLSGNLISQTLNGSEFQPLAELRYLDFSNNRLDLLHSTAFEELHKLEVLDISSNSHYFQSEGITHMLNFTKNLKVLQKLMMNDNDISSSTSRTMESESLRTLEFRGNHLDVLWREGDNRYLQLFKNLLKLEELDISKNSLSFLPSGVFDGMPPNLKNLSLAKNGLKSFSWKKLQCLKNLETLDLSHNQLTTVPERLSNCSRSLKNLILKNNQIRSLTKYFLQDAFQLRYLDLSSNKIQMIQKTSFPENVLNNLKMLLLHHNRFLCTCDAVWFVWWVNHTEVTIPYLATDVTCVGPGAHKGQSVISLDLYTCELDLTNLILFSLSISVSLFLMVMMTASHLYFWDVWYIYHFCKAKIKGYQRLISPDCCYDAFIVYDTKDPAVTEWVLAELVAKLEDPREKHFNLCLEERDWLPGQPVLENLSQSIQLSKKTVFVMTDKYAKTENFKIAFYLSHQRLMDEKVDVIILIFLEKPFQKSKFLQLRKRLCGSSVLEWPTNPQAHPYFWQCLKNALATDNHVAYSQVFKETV
Assay: TLR7 inhibition reporter assay (HEK-Blue cells, secreted embryonic alkaline phosphatase reporter)
Conditions: HEK-Blue cells overexpressing human TLR7, stimulated with gardiquimod 7.5 μM; read-out: TLR 7 IC50
REPORTED_PROPERTY: IC50

> print(dat)
                                   compound  reported.property    value
1  CS(=O)(=O)c1ccc(-c2nc3ccc(C4CCN(C5CCN(C6CC6)CC5)CC4)c(F)c3[nH]2)cc1               IC50  > 50 µM
2  CC(C)N1C2CCC1CC(N1CCC(c3cc4c(cc3F)nc(-c3ccc(S(C)(=O)=O)cc3)n4C)CC1)C2 (single isomer, unassigned) [Example 98]               IC50  23.8 µM
3  Cn1c(-c2ccc(S(C)(=O)=O)cc2)nc2ccc(C3CCN(C4CC5CCC(C4)N5C4CCOCC4)CC3)c(F)c21 (stereo not shown) [Example 275]               IC50  > 50 µM
4  COc1ccc(-c2nc3c(C)cc(C4CCN(C5CC6CCC(C5)N6C5COC5)CC4)cc3n2C)cc1OC (single isomer, unassigned) [Example 164]               IC50  > 25 µM
5  Cc1cc(-c2ccc(CN3CCC(N(C)C4CC4)CC3)cc2)cc2c1nc(-c1ccc(S(C)(=O)=O)cc1)n2C               IC50  > 50 µM
6  Cc1cc(C2CCN(C3CC4CCC(C3)N4C3COC3)CC2)cc2c1nc(-c1ccc(S(C)(=O)=O)cc1)n2C (single isomer, unassigned) [Example 158]               IC50  > 25 µM
7  CC(C)CN1CCC(N2CCC(c3ccc4c(nc(-c5ccc(S(C)(=O)=O)cc5)n4C)c3F)CC2)CC1               IC50  > 50 µM
